assay: total protein half-life in vivo (active degradation + dilution); higher = more stable protein; details: wild type E. coli NCM3722; growth: P-lim chemostat; doubling time 12 h
parameterMeasured: total protein half-life in vivo (h)
Response body: numeric value in h, unit text excluded.

Ask | Could you share which total protein half-life in vivo value was measured for "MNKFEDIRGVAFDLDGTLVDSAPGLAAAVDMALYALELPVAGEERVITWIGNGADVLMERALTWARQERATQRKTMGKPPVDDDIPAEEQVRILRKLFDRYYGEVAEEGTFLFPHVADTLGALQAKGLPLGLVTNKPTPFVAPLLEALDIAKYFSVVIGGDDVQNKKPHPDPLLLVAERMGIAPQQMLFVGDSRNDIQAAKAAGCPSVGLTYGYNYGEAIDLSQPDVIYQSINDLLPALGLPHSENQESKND" ?
Reply | 10.5

Let us move to another entry and its total protein half-life in vivo.
Ask | Could you share which total protein half-life in vivo value was measured for "MKKRVYLIAAVVSGALAVSGCTTNPYTGEREAGKSAIGAGLGSLVGAGIGALSSSKKDRGKGALIGAAAGAALGGGVGYYMDVQEAKLRDKMRGTGVSVTRSGDNIILNMPNNVTFDSSSATLKPAGANTLTGVAMVLKEYPKTAVNVIGYTDSTGGHDLNMRLSQQRADSVASALITQGVDASRIRTQGLGPANPIASNSTAEGKAQNRRVEITLSPL" ?
Reply | 11.4
